# IC50 per record follows
SYSTEM NAME: pEGFR in CUTO14 cells (Homo sapiens, UniProt P00533, DUP767-769)
Construct: endogenous in cells
Sequence (P00533 with tags, fused parts or gaps DUP767-769): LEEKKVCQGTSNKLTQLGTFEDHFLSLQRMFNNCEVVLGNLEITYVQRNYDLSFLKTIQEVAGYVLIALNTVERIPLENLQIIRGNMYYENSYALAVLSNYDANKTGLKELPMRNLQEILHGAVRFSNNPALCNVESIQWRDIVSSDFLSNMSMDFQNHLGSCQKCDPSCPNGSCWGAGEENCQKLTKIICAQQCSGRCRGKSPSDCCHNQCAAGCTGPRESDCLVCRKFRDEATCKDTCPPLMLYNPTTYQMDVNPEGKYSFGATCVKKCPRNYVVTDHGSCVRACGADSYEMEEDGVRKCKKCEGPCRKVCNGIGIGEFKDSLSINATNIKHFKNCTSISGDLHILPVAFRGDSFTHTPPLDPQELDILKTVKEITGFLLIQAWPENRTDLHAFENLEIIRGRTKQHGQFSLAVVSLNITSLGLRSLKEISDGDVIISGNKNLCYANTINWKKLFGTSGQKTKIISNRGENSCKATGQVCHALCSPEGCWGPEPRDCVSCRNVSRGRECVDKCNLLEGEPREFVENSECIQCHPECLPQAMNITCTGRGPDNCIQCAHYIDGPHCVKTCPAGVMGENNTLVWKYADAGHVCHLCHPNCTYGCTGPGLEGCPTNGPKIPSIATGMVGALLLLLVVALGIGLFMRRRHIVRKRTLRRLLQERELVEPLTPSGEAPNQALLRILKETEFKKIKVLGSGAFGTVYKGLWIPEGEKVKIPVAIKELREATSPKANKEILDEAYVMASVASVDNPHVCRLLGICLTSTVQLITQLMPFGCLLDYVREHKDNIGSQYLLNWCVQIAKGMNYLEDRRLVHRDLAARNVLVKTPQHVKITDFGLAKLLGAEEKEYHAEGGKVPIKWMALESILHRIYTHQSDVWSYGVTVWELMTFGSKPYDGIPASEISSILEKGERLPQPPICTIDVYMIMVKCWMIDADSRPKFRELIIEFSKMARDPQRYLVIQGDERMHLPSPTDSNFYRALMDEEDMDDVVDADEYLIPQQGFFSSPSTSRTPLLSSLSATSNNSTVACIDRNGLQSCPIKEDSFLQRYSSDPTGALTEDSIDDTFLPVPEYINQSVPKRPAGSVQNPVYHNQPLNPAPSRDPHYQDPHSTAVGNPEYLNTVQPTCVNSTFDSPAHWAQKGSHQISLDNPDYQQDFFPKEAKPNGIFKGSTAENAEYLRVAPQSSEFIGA
ASSAY REMARKS: Inhibitor activity on EGFR phosphorylation (pEGFR AlphaLISA, 2 h), CUTO14 cells

Examples with their reported IC50 follow.
CC#CC(=O)N1CCOC[C@H]1COc1cnccc1-c1[nH]c2c(c1Nc1cccc(F)c1OC)C(=O)NCC2 ... 100 to 1000 nM
C=CC(=O)N1C(C)CC1COc1cnccc1-c1[nH]c2c(c1Nc1cccc(F)c1OC)C(=O)NCC2 (centres unmarked) ... < 100 nM
COc1c(F)cccc1Nc1c(-c2ccncc2C#C[C@@]2(NC(=O)/C=C/CN(C)C)CCOC2)[nH]c2c1C(=O)NCC2 ... 100 to 1000 nM
C=CC(=O)N[C@]1(C#Cc2cnccc2-c2[nH]c3c(c2Nc2cccc(F)c2C)C(=O)NCC3)CCOC1 ... < 100 nM
C=CC(=O)N1CC[C@]1(C)C#Cc1cnccc1-c1[nH]c2c(c1Nc1cccc(Cl)c1OC)C(=O)NCC2 ... > 1000 nM
C=CC(=O)N(C)C(C)(C)C#Cc1cnccc1-c1[nH]c2c(c1Nc1cccc(F)c1OC)C(=O)NCC2 ... < 100 nM
COc1c(Cl)cccc1Nc1c(-c2ccncc2C#CC(C)(C)NC(=O)/C=C/CN(C)C)[nH]c2c1C(=O)NCC2 ... < 100 nM
COc1c(F)cccc1Nc1c(-c2ccncc2C#CC(C)(C)NC(=O)/C=C/CN2CCCC2)[nH]c2c1C(=O)NCC2 ... < 100 nM
C=CC(=O)N1[C@H]2CC[C@H](C2)[C@@H]1C#Cc1cnccc1-c1[nH]c2c(c1Nc1cccc(F)c1OC)C(=O)NCC2 ... < 100 nM
C=CC(=O)N[C@@H](C)C#Cc1cnccc1-c1[nH]c2c(c1Nc1cccc(F)c1OC)C(=O)NCC2 ... < 100 nM

Give the measured IC50 of C=CC(=O)NC1(C#Cc2cnccc2-c2[nH]c3c(c2Nc2cccc(F)c2OC)C(=O)NCC3)COC1 .
< 100 nM

What does the record list as IC50 for COc1c(Cl)cccc1Nc1c(-c2ccncc2C#C[C@@]2(C)CCCN2C(=O)/C=C/CN(C)C)[nH]c2c1C(=O)NCC2 ?
< 100 nM

Find the recorded IC50 belonging to C=CC(=O)N1CCC[C@H]1C#Cc1cnccc1-c1[nH]c2c(c1Nc1cccc(F)c1OC)C(=O)NCC2 [Compound 147a] and report it.
< 100 nM

Which IC50 is listed for Cc1c(F)cccc1Nc1c(-c2ccncc2C#C[C@@]2(C)CCCN2C(=O)/C=C/CN(C)C)[nH]c2c1C(=O)NCC2 ?
< 100 nM

---

SYSTEM NAME: pEGFR in CUTO14 cells (Homo sapiens, UniProt P00533, DUP767-769)
Construct: endogenous in cells; host or cells: CUTO14 cells
ASSAY REMARKS: Inhibitor activity on EGFR phosphorylation (pEGFR AlphaLISA, 2 h), CUTO14 cells
Type: cell-based
pIC50: −log10 of the molar value.
Property: pIC50; scope: individual molecules

CC#CC(=O)N1CCC[C@]1(C)C#Cc1cnccc1-c1[nH]c2c(c1Nc1cc(F)cc(Cl)c1OC)C(=O)NCC2 ... > 7.00
C=CC(=O)NC1(C#Cc2cnccc2-c2[nH]c3c(c2Nc2cccc(Cl)c2OC)C(=O)NCC3)CCOC1 (single isomer, unassigned) ... > 7.00
C=CC(=O)N1CC(C)(C)C[C@@H]1C#Cc1cnccc1-c1[nH]c2c(c1Nc1cccc(F)c1OC)C(=O)NCC2 ... > 7.00
COc1c(F)cccc1Nc1c(-c2ccncc2C#CC2(NC(=O)/C=C/CN(C)C)COC2)[nH]c2c1C(=O)NCC2 ... 6.00 to 7.00
CC#CC(=O)N1CC[C@@H]1COc1cnccc1-c1[nH]c2c(c1Nc1cccc(F)c1OC)C(=O)NCC2 ... > 7.00

For the molecule shown here, C=CC(=O)N1CC2CC1(C#Cc1cnccc1-c1[nH]c3c(c1Nc1cccc(F)c1OC)C(=O)NCC3)C2 , give the reported pIC50.
> 7.00

For the molecule shown here, COc1c(Cl)cccc1Nc1c(-c2ccncc2C#C[C@H]2CCN2C(=O)/C=C/CN(C)C)[nH]c2c1C(=O)NCC2 , give the reported pIC50.
> 7.00

Request the reported pIC50 associated with C=CC(=O)NC1(C#Cc2cnccc2-c2[nH]c3c(c2Nc2cccc(F)c2OC)C(=O)NCC3)CC(F)(F)C1
> 7.00

Which pIC50 value is on record for C=CC(=O)NC1(C#Cc2cnccc2-c2[nH]c3c(c2Nc2cccc(F)c2OC)C(=O)NCC3)CCOCC1 ?
6.00 to 7.00

Entry COc1c(F)cccc1Nc1c(-c2ccncc2C#CC2(C)CCN2C(=O)/C=C/CN(C)C)[nH]c2c1C(=O)NCC2 (stereo not drawn) has what pIC50?
< 6.00

For the molecule shown here, C=CC(=O)NC1(C#Cc2cnccc2-c2[nH]c3c(c2Nc2cccc(Cl)c2OC)C(=O)NCC3)CC(F)(F)C1 , give the reported pIC50.
> 7.00

---

Quick reference: IC50 of the listed items.
SYSTEM NAME: pEGFR in CUTO14 cells (Homo sapiens, UniProt P00533, DUP767-769)
Construct: endogenous in cells
ASSAY REMARKS: Inhibitor activity on EGFR phosphorylation (pEGFR AlphaLISA, 2 h), CUTO14 cells

CC#CC(=O)N1CCC[C@]1(C)C#Cc1cnccc1-c1[nH]c2c(c1Nc1cccc(F)c1OC)C(=O)NCC2 [compound 291] ... < 100 nM
COc1c(Cl)cccc1Nc1c(-c2ccncc2C#C[C@@H]2CCN2C(=O)/C=C/CN(C)C)[nH]c2c1C(=O)NCC2 [compound 457] ... < 100 nM
COc1c(F)cccc1Nc1c(-c2ccncc2C#C[C@@]2(C)CCCN2C(=O)/C=C/CN(C)C)[nH]c2c1C(=O)NCC2 [compound 335] ... < 100 nM

Hello, I am looking for reported IC50 with pEGFR in CUTO14 cells (Homo sapiens, UniProt P00533, DUP767-769) for COc1c(Cl)cccc1Nc1c(-c2ccncc2C#C[C@@]2(NC(=O)/C=C/CN(C)C)CCOC2)[nH]c2c1C(=O)NCC2 [compound 420] . Could you help?
< 100 nM

---

SYSTEM NAME: Ba/F3 cells with EGFR exon 20 NPG Ins D770_N771 (Homo sapiens, UniProt P00533, INS770NPG)
Sequence (P00533 with tags, fused parts or gaps INS770NPG): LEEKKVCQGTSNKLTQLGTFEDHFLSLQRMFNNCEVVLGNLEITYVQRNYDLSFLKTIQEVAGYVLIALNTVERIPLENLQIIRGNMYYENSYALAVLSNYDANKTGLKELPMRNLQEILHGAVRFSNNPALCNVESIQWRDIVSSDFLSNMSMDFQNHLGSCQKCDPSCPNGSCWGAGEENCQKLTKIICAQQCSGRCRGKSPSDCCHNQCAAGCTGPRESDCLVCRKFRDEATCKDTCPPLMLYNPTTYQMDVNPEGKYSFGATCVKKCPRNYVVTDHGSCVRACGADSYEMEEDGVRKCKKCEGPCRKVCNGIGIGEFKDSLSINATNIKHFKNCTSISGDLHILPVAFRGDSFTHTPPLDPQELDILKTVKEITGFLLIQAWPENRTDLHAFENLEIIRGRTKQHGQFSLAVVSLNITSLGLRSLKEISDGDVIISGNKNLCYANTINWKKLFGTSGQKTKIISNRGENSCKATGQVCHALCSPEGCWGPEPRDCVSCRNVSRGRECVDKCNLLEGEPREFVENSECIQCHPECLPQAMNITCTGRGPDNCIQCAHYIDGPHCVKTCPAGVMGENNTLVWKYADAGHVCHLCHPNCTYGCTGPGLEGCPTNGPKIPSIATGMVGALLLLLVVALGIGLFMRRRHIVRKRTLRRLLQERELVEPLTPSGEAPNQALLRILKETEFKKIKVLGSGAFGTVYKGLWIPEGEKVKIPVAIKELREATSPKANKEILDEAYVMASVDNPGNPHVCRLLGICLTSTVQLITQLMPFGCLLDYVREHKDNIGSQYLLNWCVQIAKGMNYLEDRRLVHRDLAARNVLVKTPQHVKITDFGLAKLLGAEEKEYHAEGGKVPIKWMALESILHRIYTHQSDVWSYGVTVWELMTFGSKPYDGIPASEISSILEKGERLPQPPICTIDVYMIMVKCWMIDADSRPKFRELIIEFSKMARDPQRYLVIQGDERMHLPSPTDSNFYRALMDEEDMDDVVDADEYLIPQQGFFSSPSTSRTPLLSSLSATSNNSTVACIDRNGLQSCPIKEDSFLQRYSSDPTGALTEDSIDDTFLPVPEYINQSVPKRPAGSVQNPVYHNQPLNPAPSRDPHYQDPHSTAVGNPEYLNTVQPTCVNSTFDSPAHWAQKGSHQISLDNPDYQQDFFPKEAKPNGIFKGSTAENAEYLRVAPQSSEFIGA
ASSAY REMARKS: EGFR activity: Ba/F3 cell viability (CellTiter-Glo, 72 h), EGFR exon 20 NPG insertion
ASSAY CONDITIONS: EGFR exon 20 NPG Ins D770_N771, cell viability, read-out: BaF3 NPG IC50
pIC50: −log10 of the molar value.
In this section, each of the molecules is paired with its reported pIC50.

Return reported pIC50; argument: C=CC(=O)N1[C@@H](COc2cnccc2-c2[nH]c3c(c2Nc2cccc(Cl)c2OC)C(=O)NCC3)C[C@@H]1C
> 7.00

---

The reader will find reported IC50 values listed item by item below.
SYSTEM NAME: pEGFR in CUTO14 cells (Homo sapiens, UniProt P00533, DUP767-769)
Construct: endogenous in cells; host or cells: CUTO14 cells
ASSAY REMARKS: Inhibitor activity on EGFR phosphorylation (pEGFR AlphaLISA, 2 h), CUTO14 cells
Type: cell-based

Sample answers from the record:
C=CC(=O)N1[C@@H](COc2cnccc2-c2[nH]c3c(c2Nc2cccc(F)c2OC)C(=O)NCC3)C[C@H]1C (relative stereo) [compound 332] ... < 100 nM
C=CC(=O)NC1(C#Cc2cnccc2-c2[nH]c3c(c2Nc2cccc(Cl)c2OC)C(=O)NCC3)CCN(C)CC1 [compound 411] ... 100 to 1000 nM

Look up IC50 for this molecule: C=CC(=O)N1[C@@H](COc2cnccc2-c2[nH]c3c(c2Nc2cccc(Cl)c2OC)C(=O)NCC3)C[C@H]1C [compound 271]
< 100 nM

Look at this molecule and give its reported IC50. C=CC(=O)N1CCN(C)C[C@H]1COc1cnccc1-c1[nH]c2c(c1Nc1cccc(F)c1OC)C(=O)NCC2 [compound 569]
< 100 nM

// lookup IC50 for C=CC(=O)N1[C@H](COc2cnccc2-c2[nH]c3c(c2Nc2cccc(Cl)c2OC)C(=O)NCC3)C[C@@H]1C [compound 273]
< 100 nM

Need IC50, item COc1c(F)cccc1Nc1c(-c2ccncc2C#CC(C)(C)NC(=O)C#CCN(C)C)[nH]c2c1C(=O)NCC2 [compound 465]
< 100 nM

Quick one: IC50 of COc1c(Cl)cc(F)cc1Nc1c(-c2ccncc2C#C[C@@]2(C)CCCN2C(=O)/C=C/CN(C)C)[nH]c2c1C(=O)NCC2 [compound 435] ?
< 100 nM

Fill blank: measured IC50 of the molecule CC#CC(=O)N1CC[C@@]1(C)COc1cnccc1-c1[nH]c2c(c1Nc1cccc(Cl)c1OC)C(=O)NCC2 [compound 358] is ____.
100 to 1000 nM

State the recorded IC50 for this entry: C#CC(=O)N1CC[C@@H]1COc1cnccc1-c1[nH]c2c(c1Nc1cccc(Cl)c1OC)C(=O)NCC2 [compound 447]
< 100 nM

Where these numbers come from: patent US20230364070A1
